Source of measurements: patent US20250154277A1

Task for the reader: assign each of the following binders its reported EC50.
Target: T1, human 5T4-His protein (human, UniProt Q13641 32-355)
T1 construct: also called recombinant 5T4 protein (human 5T4-his tag); human 5T4 protein; not shown: His tag
T1 sequence (looked up): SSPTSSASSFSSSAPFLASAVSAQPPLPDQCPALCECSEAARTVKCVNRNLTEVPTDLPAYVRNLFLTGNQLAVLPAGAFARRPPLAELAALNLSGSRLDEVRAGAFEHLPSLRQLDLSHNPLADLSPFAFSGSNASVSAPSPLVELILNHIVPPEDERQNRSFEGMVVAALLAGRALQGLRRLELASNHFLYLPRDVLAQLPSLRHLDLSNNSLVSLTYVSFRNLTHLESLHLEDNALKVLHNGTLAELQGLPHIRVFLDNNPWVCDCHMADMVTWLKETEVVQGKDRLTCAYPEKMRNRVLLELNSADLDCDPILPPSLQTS
Test: ELISA, coated 5T4-His
Give bare numbers, in nM.

Illustrative cases are given below, each with its answer.
Q: Name the reported EC50 value associated with the binder Hu286B4-18 (antibody, V domains shown, humanized) VH: EVQLQESGPGLVKPSDTLSLTCAVSGYSITNNYYWNWIRQPPGKGLEWMGYITYDGSNNYNPSLKNRITVSRDTSKNQFSLKLSSVTAVDTAVYYCTRGGGQLRFDYWGQGTTVTVSS VL: DIQMTQSPSSLSASVGDRVTITCKASQSVSNEVTWYQQKPGKAPKMLIYYASNRYTGVPDRFSGSGYGTDFTFTISSLQPEDIATYYCQQDYSSPWTFGGGTKVEIK
Result: 0.42

Q: What would you report for Hu286B4-8 (antibody, V domains shown, humanized) VH: EVQLQESGPGLVKPSDTLSLTCAVSGYSISNNYYWNWIRQPPGKGLEWIGYITYDGSNNYNPSLKNRITMSRDTSKNQFSLKLSSVTAVDTAVYYCARGGGQLRFDYWGQGTTVTVSS VL: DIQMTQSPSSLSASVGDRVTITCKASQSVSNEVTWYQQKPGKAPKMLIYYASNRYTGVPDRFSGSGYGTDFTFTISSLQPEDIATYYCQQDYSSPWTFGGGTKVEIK ?
Result: 0.68

Continue with the binder presented below.
Q: For the binder Hu286B4-17 (antibody, V domains shown, humanized) VH: EVQLQESGPGLVKPSDTLSLTCAVSGYSITNNYYWNWIRQPPGKGLEWMGYITYDGSNNYNPSLKNRITVSRDTSKNQFSLKLSSVTAVDTAVYYCTRGGGQLRFDYWGQGTTVTVSS VL: DIQMTQSPSSLSASVGDRVTITCKASQSVSNEVTWYQQKPGKAPKMLIYYASNRYTGVPDRFSGSGSGTDFTFTISSLQPEDIATYYCQQDYSSPWTFGGGTKVEIK , what EC50 is on record?
Result: 0.71
